The origin of these recorded values is patent US20030186281A1.

test system: tet operator sequence; assay: β-galactosidase activity of a tetracycline-regulated promoter in transformed E. coli with revTetR, in the presence and absence of anhydrotetracycline (atc); assay type: cell-based, Escherichia coli; settings: RevTetR isolate cultured in the absence of anhydrotetracycline (ATC)
METRIC: β-Galactosidase Activity, Cultured Without ATC

>  <MOLECULE>
TetRrevAF5/1: revTetR(BD) L14F D95A V99G (protein, Modified tetracycline repressor, revTetR(BD) L14F D95A V99G) MSRLDKSKVINSAFELLNEVGIEGLTTRKLAQKLGVEQPTLYWHVKNKRALLDALAVEILARHHDYSLPAAGESWQSFLRNNAMSFRRALLRYRAGAKGHLGTRPDEKQYDTVETQLRFMTENGFSLRDGLYAISAVSHFTLGAVLEQQEHTAALTDRPAAPDENLPPLLREALQIMDSDDGEQAFLHGLESLIRGFEVQLTALLQIV

>  <RESULT NUMBER>
100.053

$$$$
>  <MOLECULE>
TetRrev29/42: revTetR(BD) E19D G96R (protein, Modified tetracycline repressor, revTetR(BD) E19D G96R) MSRLDKSKVINSALDLLNEVGIEGLTTRKLAQKLGVEQPTLYWHVKNKRALLDALAVEILARHHDYSLPAAGESWQSFLRNNAMSFRRALLRYRDRAKVHLGTRPDEKQYDTVETQLRFMTENGFSLRDGLYAISAVSHFTLGAVLEQQEHTAALTDRPAAPDENLPPLLREALQIMDSDDGEQAFLHGLESLIRGFEVQLTALLQIV

>  <RESULT NUMBER>
96.187

$$$$
